- protocolSummary: Ratio of drug level in brain to plasma in Wistar Han rat at 5 mg/kg, iv after 1 hr
- Type: ADME, organism-based
- experimentalSetup: read-out: BPR
Attribute: Kp at 1 h
measuredMetric: Kp at 1 h

> print(dat)
                                 itemsmiles  obsvalue
1  COC(=O)N1CCN(C(=O)Cc2ccc(Cl)c(Cl)c2)[C@@H]2[C@@H](N3CC[C@H](O)C3)CCC[C@@H]21.Cl      0.11
2  COC(=O)N1CCN(C(=O)Cc2ccc(F)c(F)c2)[C@@H]2[C@@H](N3CC[C@H](O)C3)CCC[C@@H]21.Cl      0.12
3  COC(=O)N1CCN(C(=O)Cc2cccc(Cl)c2)[C@@H]2[C@@H](N3CC[C@H](O)C3)CCC[C@@H]21.Cl       0.1
4  CN(C)S(=O)(=O)N1CCN(C(=O)Cc2ccc(Cl)c(Cl)c2)[C@@H]2[C@@H](N3CCCC3)CCC[C@@H]21.Cl      0.97
5  CS(=O)(=O)N1CCN(C(=O)Cc2ccc(F)c(Cl)c2)[C@@H]2[C@@H](N3CC[C@H](O)C3)CCC[C@@H]21.Cl      0.11
6  COC(=O)N1CCN(C(=O)Cc2ccc(F)c(Cl)c2)[C@@H]2[C@@H](N3CC[C@H](F)C3)CCC[C@@H]21.Cl      0.11
7  COC(=O)N1CCN(C(=O)Cc2ccc(F)c(Cl)c2)[C@@H]2[C@@H](N3CC[C@H](O)C3)CCC[C@@H]21.Cl      0.09
8  COC(=O)N1CCN(C(=O)Cc2ccc(Cl)c(F)c2)[C@@H]2[C@@H](N3CC[C@H](O)C3)CCC[C@@H]21.Cl      0.12

* * *

- Test system: Mus musculus
- protocolSummary: Antiinflammatory activity in oxazolone-induced delayed type hypersensitivity BALB/c mouse model assessed as reduction in ear weight at 0.1 to 2.5 mg applied topically on ear administered 3 hrs prior to oxazolone challenge on day 7 to 12 post sensitization followed by re-administration of compound on day 13 to 18 without oxazolone challenge measured on day 19
- Type: functional
Calls of active or inactive are those of the source. The rule behind the calls is not given here.
Classes used: active, inactive

> print(dat)
                                 itemsmiles  labelvalue
1  COC(=O)N1CCN(C(=O)Cc2ccc(Cl)c(F)c2)[C@@H]2[C@@H](N3CC[C@H](O)C3)CCC[C@@H]21      active
2  CS(=O)(=O)N1CCN(C(=O)Cc2ccc(Cl)c(Cl)c2)[C@@H]2[C@@H](N3CC[C@H](O)C3)CCC[C@@H]21      active
3  COC(=O)N1CCN(C(=O)Cc2ccc(F)c(F)c2)[C@@H]2[C@@H](N3CC[C@H](O)C3)CCC[C@@H]21      active
4  COC(=O)N1CCN(C(=O)Cc2ccc(Cl)cc2)[C@@H]2[C@@H](N3CC[C@H](O)C3)CCC[C@@H]21      active
5  COC(=O)N1CCN(C(=O)Cc2ccc(F)c(Cl)c2)[C@@H]2[C@@H](N3CC[C@H](F)C3)CCC[C@@H]21    inactive

* * *

Attribute: pKi
- protocolSummary: Displacement of [3H]DPDPE from delta-type opioid receptor in guinea pig brain membranes after 120 mins by solid scintillation counting
- Assay type: cell membranes, Cavia porcellus, Membrane
pKi: −log10 of the molar value.
measuredMetric: pKi

> print(dat)
                                 itemsmiles  obsvalue
1  COC(=O)N1CCN(C(=O)Cc2ccc(Cl)c(F)c2)[C@@H]2[C@@H](N3CC[C@H](O)C3)CCC[C@@H]21      6.60
2  CC(C)NC(=O)N1CCN(C(=O)Cc2ccc(Cl)c(Cl)c2)[C@@H]2[C@@H](N3CCCC3)CCC[C@@H]21      6.63
3  CS(=O)(=O)N1CCN(C(=O)Cc2ccc(Cl)c(Cl)c2)[C@@H]2[C@@H](N3CCCC3)CCC[C@@H]21      5.96
4  O=C(Cc1ccc(Cl)cc1)N1CCN(S(=O)(=O)Cc2ccon2)[C@H]2CCC[C@H](N3CC[C@H](O)C3)[C@H]21      6.06
5  COC(=O)N1CCN(C(=O)Cc2ccc(Cl)cc2)[C@@H]2[C@@H](N3CC[C@H](O)C3)CCC[C@@H]21      6.35
6  COC(=O)N1CCN(C(=O)Cc2ccc(C(F)(F)F)c(Cl)c2)[C@@H]2[C@@H](N3CC[C@H](O)C3)CCC[C@@H]21      6.40

* * *

- protocolSummary: Drug level in Wistar Han rat brain at 5 mg/kg, iv measured 1 hr post compound administration
- Format: ADME, organism-based
- experimentalSetup: read-out: Drug uptake
Label -1 if concentration at 1 h falls below 70 ng/g; label 1 in every other case.

> print(dat)
                                  itemsmiles  labelvalue
 1  COC(=O)N1CCN(C(=O)Cc2ccc(Cl)c(Cl)c2)[C@@H]2[C@@H](N3CC[C@H](O)C3)CCC[C@@H]21.Cl           1
 2  COC(=O)N1CCN(C(=O)Cc2ccc(C(F)(F)F)c(Cl)c2)[C@@H]2[C@@H](N3CC[C@H](O)C3)CCC[C@@H]21.Cl           1
 3  CS(=O)(=O)N1CCN(C(=O)Cc2ccc(F)c(Cl)c2)[C@@H]2[C@@H](N3CC[C@H](O)C3)CCC[C@@H]21.Cl          -1
 4  CN(C)S(=O)(=O)N1CCN(C(=O)Cc2ccc(Cl)c(Cl)c2)[C@@H]2[C@@H](N3CCCC3)CCC[C@@H]21.Cl           1
 5  CS(=O)(=O)N1CCN(C(=O)Cc2ccc(Cl)c(Cl)c2)[C@@H]2[C@@H](N3CC[C@H](O)C3)CCC[C@@H]21.Cl          -1
 6  COC(=O)N1CCN(C(=O)Cc2ccc(F)c(Cl)c2)[C@@H]2[C@@H](N3CC[C@H](O)C3)CCC[C@@H]21.Cl          -1
 7  COC(=O)N1CCN(C(=O)Cc2ccc(F)c(F)c2)[C@@H]2[C@@H](N3CC[C@H](O)C3)CCC[C@@H]21.Cl          -1
 8  COC(=O)N1CCN(C(=O)Cc2cccc(Cl)c2)[C@@H]2[C@@H](N3CC[C@H](O)C3)CCC[C@@H]21.Cl          -1
 9  COC(=O)N1CCN(C(=O)Cc2ccc(Cl)c(F)c2)[C@@H]2[C@@H](N3CC[C@H](O)C3)CCC[C@@H]21.Cl          -1
10  COC(=O)N1CCN(C(=O)Cc2ccc(F)c(Cl)c2)[C@@H]2[C@@H](N3CC[C@H](F)C3)CCC[C@@H]21.Cl           1
11  CS(=O)(=O)N1CCN(C(=O)Cc2ccc(Cl)c(F)c2)[C@@H]2[C@@H](N3CC[C@H](O)C3)CCC[C@@H]21.Cl          -1

* * *

Recorded Ki values (UniProt P41144) are given below.
Sequence (P41144 whole entry): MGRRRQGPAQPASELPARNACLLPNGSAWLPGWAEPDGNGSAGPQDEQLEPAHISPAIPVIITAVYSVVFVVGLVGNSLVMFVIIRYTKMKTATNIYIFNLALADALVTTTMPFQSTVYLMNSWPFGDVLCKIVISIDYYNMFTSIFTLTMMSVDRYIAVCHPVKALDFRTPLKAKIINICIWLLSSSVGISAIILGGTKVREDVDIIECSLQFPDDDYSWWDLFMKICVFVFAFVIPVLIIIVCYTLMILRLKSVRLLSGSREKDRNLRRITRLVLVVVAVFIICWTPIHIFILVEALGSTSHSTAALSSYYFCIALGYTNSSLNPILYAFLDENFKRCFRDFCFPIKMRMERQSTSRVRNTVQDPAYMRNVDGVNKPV
measuredMetric: Ki (pM)

> print(dat)
                                 itemsmiles  obsvalue
1  O=C(Cc1ccc(Cl)cc1)N1CCN(S(=O)(=O)Cc2ccon2)[C@H]2CCC[C@H](N3CC[C@H](O)C3)[C@H]21       980
2  COC(=O)CN1CCN(C(=O)Cc2ccc(Cl)c(Cl)c2)[C@@H]2[C@@H](N3CCCC3)CCC[C@@H]21       700
3  O=C(Cc1ccc(Cl)c(F)c1)N1CCN(S(=O)(=O)Cc2ccon2)[C@H]2CCC[C@H](N3CC[C@H](O)C3)[C@H]21       820
4  CNC(=O)C(=O)N1CCN(C(=O)Cc2ccc(Cl)c(Cl)c2)[C@@H]2[C@@H](N3CCCC3)CCC[C@@H]21      1500
5  COC(=O)N1CCN(C(=O)Cc2ccc(F)c(F)c2)[C@@H]2[C@@H](N3CC[C@H](O)C3)CCC[C@@H]21      1200
6  CC(C)NC(=O)N1CCN(C(=O)Cc2ccc(Cl)c(Cl)c2)[C@@H]2[C@@H](N3CCCC3)CCC[C@@H]21      2500
7  COC(=O)N1CCN(C(=O)Cc2ccc(Cl)c(Cl)c2)[C@@H]2[C@@H](N(C)C)CCC[C@@H]21       160
8  CCOC(=O)CN1CCN(C(=O)Cc2ccc(Cl)c(Cl)c2)[C@@H]2[C@@H](N3CCCC3)CCC[C@@H]21       430

* * *

- protocolSummary: Ratio of drug level in brain to plasma in Wistar Han rat at 1 mg/kg, iv after 1 hr
- Type: ADME, organism-based
- experimentalSetup: read-out: BPR
measuredMetric: Kp at 1 h

> print(dat)
                                 itemsmiles  obsvalue
1  COC(=O)CN1CCN(C(=O)Cc2ccc(Cl)c(Cl)c2)[C@@H]2[C@@H](N3CCCC3)CCC[C@@H]21.Cl      0.02
2  COC(=O)N1CCN(C(=O)Cc2ccc(Cl)c(Cl)c2)[C@@H]2[C@@H](N3CC[C@@H](O)C3)CCC[C@@H]21.Cl      0.07
3  CC(C)NC(=O)N1CCN(C(=O)Cc2ccc(Cl)c(Cl)c2)[C@@H]2[C@@H](N3CCCC3)CCC[C@@H]21.Cl      0.02
4  COC(=O)N1CCN(C(=O)Cc2ccc(Cl)c(Cl)c2)[C@@H]2[C@@H](N(C)C)CCC[C@@H]21.Cl      0.54
5  CS(=O)(=O)N1CCN(C(=O)Cc2ccc(Cl)c(Cl)c2)[C@@H]2[C@@H](N3CCCC3)CCC[C@@H]21.Cl      0.02
